B1: EHMT1 (parent)
chain: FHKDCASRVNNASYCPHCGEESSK

# Variants of: B1
# Assay Name: protein stability index of a GFP-peptide fusion (GPS, HEK-293T) (PSI 1-6); higher = more stable;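 note: lentivirally expressed fusions sorted by FACS into six bins by GFP to DsRed ratio, PSI derived from sequencing read proportions per bin multiplied by bin number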
# Protocol Conditions: c terminus: a fixed tail appended
Quantity Kind: protein stability index

1. K24N    2.99
2. E20M    3.15
3. K3Q    2.27
4. C18K    3.85
5. N11D    3.64
6. S13P    3.12
7. H2L    3.58
8. D4Y    2.02
9. Y14N    3.75
